The following compounds are shown together with reported Particle size/ Ø (nm) values.
- testDetails: Size distribution, polydispersity and Z-potential of LNPs by dynamic light scattering (Malvern Zetasizer)
- Format: physicochemical
- condition: LNPs, standard formulation 50:10:38.5:1.5; DLS
Response body: numeric value in nm, unit text excluded.

Use the examples below as a reference point.
INSERT INTO assay_data (compound, experimentalreadout, measureunit, resultvalue) VALUES
  ('CCCCCCCCCCCCCOC(=O)CCSCCC(NC(=O)C(CCCCCC)CCCCCCCC)C(=O)NCCN1CCOCC1 (stereo not shown)', 'Particle size/ Ø (nm)', 'nm', 136.1),
  ('CCCCCCCCOC(=O)CCSCC(CC(=O)NCCCN1CCOCC1)C(=O)OC(CCCCCCCC)CCCCCCCC (stereo not shown)', 'Particle size/ Ø (nm)', 'nm', 155.3),
  ('CCCCCCCCCCCCCCCCCCCCCCOC(=O)CCSCCC(C(=O)NCCCn1ccnc1)C(=O)OC(CCCCCCCC)CCCCCCCC (stereo not shown)', 'Particle size/ Ø (nm)', 'nm', 143.9),
  ('CCCCCCCCC(CCCCCCCC)OC(=O)C(CSCCC(=O)OCCCCCC(C)C)CC(=O)NCCCn1ccnc1 (stereo not shown)', 'Particle size/ Ø (nm)', 'nm', 112.3),
  ('CCCCCCCCCCCCCCCCCC(=O)NC(CCSCCC(=O)OCC(CCCCCCCCCC)CCCCCCCCCCCC)C(=O)NCCCN1CCOCC1 (stereo not shown)', 'Particle size/ Ø (nm)', 'nm', 218),
  ('CCCCCCCCC(CCCCCC)C(=O)NC(CCSCCC(=O)OCCCCCCCC(C)C)C(=O)NCC1CCN(C)CC1 (stereo not shown)', 'Particle size/ Ø (nm)', 'nm', 150.9);

Kindly review the next compound as well.
Input: What measured Particle size/ Ø (nm) goes with CCCCCCCC/C=C\CCCCCCCC(=O)NC(CCSCC(=O)OCCCCCCCCCCCCC)C(=O)NCCCN1CCOCC1 (stereo not shown) ?
Output: 146.3

----------
Reported P.D.I. values are given for each entry in this list.
- testDetails: Size distribution, polydispersity and Z-potential of LNPs by dynamic light scattering (Malvern Zetasizer)
- Format: physicochemical
- condition: LNPs, standard formulation 50:10:38.5:1.5; DLS
Please reply with the value in numeric form only.

INSERT INTO assay_data (molecule, resultvalue) VALUES
  ('CCCCCCCCCCCCOC(=O)CCSCCC(NC(=O)C(CCCCCC)CCCCCCCC)C(=O)NCCCN1CCCC1 (stereo not shown) [VC-LC-0245]', 0.16),
  ('CCCCCCCCOC(=O)CCSCC(CC(=O)NC1CCN(C)CC1)C(=O)OCC(CCCCCC)CCCCCCCC (stereo not shown) [VC-LC-0535]', 0.11),
  ('CCCCCCCCC(CCCCCC)C(=O)NC(CCSCCC(=O)OCC(CC)CCCC)C(=O)NCCN1CCN(C)CC1 (stereo not shown) [VC-LC-0181]', 0.35);

Now look at this entry.
Input: Data request, read-out P.D.I., for CCCCCCCCC(CCCCCC)COC(=O)CCSCCC(NC(=O)C(CCCCCC)CCCCCCCC)C(=O)NCC1CCN(C)CC1 (stereo not shown) [VC-LC-0491]
Output: 0.17

----------
- testDetails: RNA encapsulation efficiency of LNPs by Quant-IT Ribogreen
- Format: physicochemical
- condition: LNPs with luciferase mRNA; ionizable lipid:non-cationic lipid:sterol:PEG-modified lipid 50:10:38.5:1.5; percentage of RNA entrapped in the LNP
experimentalReadout: Encaps. efficiency (%)
Reply with just the number (in %).

The examples below pair each entry with its known result.
INSERT INTO assay_data (compound, experimentalreadout, measureunit, resultvalue) VALUES
  ('CCCCCCCCCCCCCCCCCCCCCCOC(=O)CCSCC(CC(=O)NC1CCN(C)CC1)C(=O)OCC(CCCCCC)CCCCCCCC (stereo not shown)', 'Encaps. efficiency (%)', '%', 98.35),
  ('CCCCCCCCC(CCCCCC)C(=O)NC(CCSCCC(=O)OCC(CC)CCCC)C(=O)NCCN1CCN(C)CC1 (stereo not shown)', 'Encaps. efficiency (%)', '%', 85.48),
  ('CCCCCCCCC(CCCCCC)C(=O)NC(CCSCCC(=O)OCC(CC)CCCC)C(=O)NC1CCN(C)CC1 (stereo not shown)', 'Encaps. efficiency (%)', '%', 83.35),
  ('CCCCCCCCC(CCCCCCCC)OC(=O)C(CSCCC(=O)OCCCCCCCC(C)C)CC(=O)NCCCn1ccnc1 (stereo not shown)', 'Encaps. efficiency (%)', '%', 48.51),
  ('CCCCCCCCCCCCCCOC(=O)CCSCCC(NC(=O)C(CCCCCC)CCCCCCCC)C(=O)NCCCN(C)C (stereo not shown)', 'Encaps. efficiency (%)', '%', 100.00),
  ('CCCCCCCC/C=C\CCCCCCCC(=O)NC(CCSCCC(=O)OCCCCCCCC(C)C)C(=O)NCCCN(CCO)CCO (stereo not shown)', 'Encaps. efficiency (%)', '%', 94.63);

Turning now to a further record.
Input: Which Encaps. efficiency (%) is listed for CCCCCCCCCCCCCCCCOC(=O)CCSCCC(NC(=O)C(CCCCCC)CCCCCCCC)C(=O)NCCCN(C)C (stereo not shown) ?
Output: 98.70

----------
Measured Particle size/ Ø (nm) values are reported for all entries that follow.
- testDetails: Size distribution, polydispersity and Z-potential of LNPs by dynamic light scattering (Malvern Zetasizer)
- Type: physicochemical
- condition: LNPs, standard formulation 50:10:38.5:1.5; DLS
The figure you give is taken to be in nm; do not add the unit.

Input: Fill in the blank: the reported Particle size/ Ø (nm) of CCCCCCCCCCCCCCCCCC(=O)NC(CCSCCC(=O)OCCCCCCCCCCCCC)C(=O)NC1CCN(C)CC1 (stereo not shown) is ____.
Output: 182.6

Input: I have this compound here, CCCCCCCCCCCCOC(=O)CCSCC(CC(=O)NCCCn1ccnc1)C(=O)OC(CCCCCCCC)CCCCCCCC (stereo not shown) , and I need its recorded Particle size/ Ø (nm).
Output: 190.5

Input: Any idea what Particle size/ Ø (nm) was measured for CCCCCCCCCCC(CCCCCCCC)C(=O)NC(CCSCCC(=O)OCCCCCCCC)C(=O)NCC1CCN(C)CC1 (stereo not shown) ?
Output: 137.9

----------
Recorded Z Potential (± D.E.) [mV], one value per entry.
- testDetails: Size distribution, polydispersity and Z-potential of LNPs by dynamic light scattering (Malvern Zetasizer)
- Type: physicochemical
- condition: LNPs, standard formulation 50:10:38.5:1.5; DLS
Answer in mV, number only, no unit symbol.

INSERT INTO assay_data (compound, measureunit, resultvalue) VALUES
  ('CCCCCCCC/C=C\CCCCCCCCOC(=O)CCSCCC(NC(=O)CCCCCCCCCCCCCCCCC)C(=O)NC1CCN(C)CC1 (stereo not drawn)', 'mV', 7.19),
  ('CCCCCCCCCCCCCCOC(=O)CCSCCC(NC(=O)C(CCCCCC)CCCCCCCC)C(=O)NCCN(CC)CC (stereo not drawn)', 'mV', -7.01);

Next item in the queue.
Input: Find the recorded Z Potential (± D.E.) [mV] belonging to CCCCCCCCC(CCCCCC)COC(=O)C(CCSCCC(=O)OCC(CC)CCCC)C(=O)NCCCN1CCOCC1 (stereo not drawn) and report it.
Output: -11.14

----------
- testDetails: Size distribution, polydispersity and Z-potential of LNPs by dynamic light scattering (Malvern Zetasizer)
- Format: physicochemical
- condition: LNPs, standard formulation 50:10:38.5:1.5; DLS
Overview of recorded P.D.I. for various molecules
Output spec: single numeric token, no unit.

Observe how each entry below is paired with its result.
INSERT INTO assay_data (molecule, experimentalreadout, resultvalue) VALUES
  ('CCCCCCCCCCCCOC(=O)CCSCC(CC(=O)NCCCn1ccnc1)C(=O)OC(CCCCCCCC)CCCCCCCC (stereo not shown)', 'P.D.I.', 0.16),
  ('CCCCCCCCCCCCCOC(=O)CCSCC(CC(=O)NC1CCN(C)CC1)C(=O)OCC(CCCCCC)CCCCCCCC (stereo not shown)', 'P.D.I.', 0.15),
  ('CCCCCCCCC(CCCCCC)C(=O)NC(CCSCCC(=O)OCCCCCC(C)C)C(=O)NCCN1CCN(C)CC1 (stereo not shown)', 'P.D.I.', 0.18),
  ('CCCCCCCCCCCCC(CCCCCCCCCC)COC(=O)CCSCCC(NC(=O)C(CCCCCC)CCCCCCCC)C(=O)NCCN(CC)CC (stereo not shown)', 'P.D.I.', 0.17),
  ('CCCCCCCC/C=C\CCCCCCCC(=O)NC(CCSCCC(=O)OCCCCCCCCCCCCC)C(=O)NCCCN(CCO)CCO (stereo not shown)', 'P.D.I.', 0.2);

Input: Can you share its P.D.I.? I mean this molecule: CCCCCCCCCCCCCCCCOC(=O)CCSCCC(C(=O)NCCCn1ccnc1)C(=O)OC(CCCCCCCC)CCCCCCCC (stereo not shown)
Output: 0.15

Input: Report P.D.I. for CCCCCCCCCCCCCOC(=O)CCSCC(CC(=O)NCCCN1CCOCC1)C(=O)OC(CCCCCCCC)CCCCCCCC (stereo not shown) please.
Output: 0.11

Input: Value lookup for P.D.I.; key = CCCCCCCCCCCCCCCCCCCCCCOC(=O)CCSCC(CC(=O)NC1CCN(C)CC1)C(=O)OCC(CCCCCC)CCCCCCCC (stereo not shown)
Output: 0.19
